Test method notes: Pharmacokinetic study of omeprazole in mice after i.v., i.p. and p.o. administration (plasma and brain, LC-QTOF-MS)
Format: in vivo, Male ICR mice
Test conditions: male, ICR, mouse, ip, 10 mg/kg, brain

- Molecule: "COc1ccc2[nH]c([S+]([O-])Cc3ncc(C)c(OC)c3C)nc2c1 (stereo not shown)"
  AUC(0-t): "72.8 ng·h/mL"

----------
Test method notes: Pharmacokinetic study of omeprazole in mice after i.v., i.p. and p.o. administration (plasma and brain, LC-QTOF-MS)
Type: in vivo, Male ICR mice
Test conditions: male, ICR, mouse, iv, 10 mg/kg, plasma

- Compound: "COc1ccc2[nH]c([S+]([O-])Cc3ncc(C)c(OC)c3C)nc2c1 (stereo not shown)"
  half-life (min): 27.4

----------
Test method notes: Pharmacokinetic study of omeprazole in mice after i.v., i.p. and p.o. administration (plasma and brain, LC-QTOF-MS)
Type: in vivo, Male ICR mice
Test conditions: male, ICR, mouse, po, 10 mg/kg, brain

- Molecule: "COc1ccc2[nH]c([S+]([O-])Cc3ncc(C)c(OC)c3C)nc2c1 (stereo not shown)"
  Unit: "ng·h/mL"
  AUC(0-t): 15.2

----------
Test method notes: Pharmacokinetic study of omeprazole in mice after i.v., i.p. and p.o. administration (plasma and brain, LC-QTOF-MS)
Format: in vivo, Male ICR mice
Test conditions: male, ICR, mouse, iv, 10 mg/kg, plasma
Experimental readout: clearance

- Molecule: "COc1ccc2[nH]c([S+]([O-])Cc3ncc(C)c(OC)c3C)nc2c1 (stereo not shown)"
  Experimental readout: "clearance"
  Result: "37.8 mL/min/kg"

----------
Test method notes: Pharmacokinetic study of omeprazole in mice after i.v., i.p. and p.o. administration (plasma and brain, LC-QTOF-MS)
Assay type: in vivo, Male ICR mice
Test conditions: male, ICR, mouse, brain/plasma, iv, 10 mg/kg, i.v., read-out: Brain/Plasma Ratio
Experimental readout: Kp

- Compound: "COc1ccc2[nH]c([S+]([O-])Cc3ncc(C)c(OC)c3C)nc2c1 (stereo not shown)"
  Result: 0.147

----------
Test method notes: Pharmacokinetic study of omeprazole in mice after i.v., i.p. and p.o. administration (plasma and brain, LC-QTOF-MS)
Assay type: in vivo, Male ICR mice
Test conditions: male, ICR, mouse, iv, 10 mg/kg, plasma

- Compound: "COc1ccc2[nH]c([S+]([O-])Cc3ncc(C)c(OC)c3C)nc2c1 (stereo not shown)"
  AUC(0-t) [ng·h/mL]: 4440

----------
Test method notes: Pharmacokinetic study of omeprazole in mice after i.v., i.p. and p.o. administration (plasma and brain, LC-QTOF-MS)
Assay type: in vivo, Male ICR mice
Test conditions: male, ICR, mouse, iv, 10 mg/kg, plasma

- Compound: "COc1ccc2[nH]c([S+]([O-])Cc3ncc(C)c(OC)c3C)nc2c1 (stereo not shown) [Omeprazole]"
  Vd: "1.49 L/kg"

----------
Test method notes: In vivo metabolite identification (MetID) after concomitant omeprazole/D3-omeprazole administration, mouse plasma and brain
Parameters: species or system Male ICR mice; key: found / not found / E, i.v. route (brain): found / not found / F, p.o. route (brain): found / not found / A, i.p. route (plasma): found / not found / B, i.v. route (plasma): found / not found / C, p.o. route (plasma): found / not found: O, found; -, not found
Test conditions: 50 mg/kg omeprazole/D3-omeprazole 1:1, p.o., mouse brain
Experimental readout: F, p.o. route (brain): found / not found

- Compound: "COc1ccc2[nH]c([S+]([O-])Cc3ncc(C)cc3C)nc2c1 (stereo not shown) [Metabolite M11]"
  Result: "O"
- Compound: "COc1c(C)cnc(CSc2nc3cc(O)ccc3[nH]2)c1C [Metabolite M17]"
  Result: "-"
- Compound: "COc1ccc2[nH]c(SCC(NC(C)=O)C(=O)O)nc2c1 (stereo not shown) [Metabolite M1]"
  Result: "-"
- Compound: "COc1ccc2nc(S(=O)(=O)Cc3ncc(C)c(OC)c3C)[nH]c2c1 [Metabolite M14, omeprazole sulfone]"
  Result: "O"
- Compound: "COc1ccc2[nH]c([S+]([O-])Cc3ncc(C)c(OC)c3C)nc2c1 (stereo not shown) [Omeprazole]"
  Result: "O"
- Compound: "COc1ccc2[nH]c(SCc3ncc(C)c(OC)c3C)nc2c1 [Metabolite M15, omeprazole sulfide]"
  Result: "O"
- Compound: "COc1c(C)cnc(C[S+]([O-])c2nc3cc(O[C@@H]4O[C@H](C(=O)O)[C@@H](O)[C@H](O)[C@H]4O)ccc3[nH]2)c1C (stereo partly shown) [Metabolite M2]"
  Result: "-"

----------
Test method notes: Pharmacokinetic study of omeprazole in mice after i.v., i.p. and p.o. administration (plasma and brain, LC-QTOF-MS)
Format: in vivo, Male ICR mice
Test conditions: male, ICR, mouse, ip, 10 mg/kg, plasma

- Compound: "COc1ccc2[nH]c([S+]([O-])Cc3ncc(C)c(OC)c3C)nc2c1 (stereo not shown)"
  Unit: "ng·h/mL"
  AUC(0-t): 1070

----------
Test method notes: In vivo metabolite identification (MetID) after concomitant omeprazole/D3-omeprazole administration, mouse plasma and brain
Set-up: species or system Male ICR mice; key: found / not found / E, i.v. route (brain): found / not found / F, p.o. route (brain): found / not found / A, i.p. route (plasma): found / not found / B, i.v. route (plasma): found / not found / C, p.o. route (plasma): found / not found: O, found; -, not found
Test conditions: 50 mg/kg omeprazole/D3-omeprazole 1:1, p.o., mouse plasma
Experimental readout: C, p.o. route (plasma): found / not found

- Molecule: "COc1c(C)cnc(CSc2nc3cc(O)ccc3[nH]2)c1C [Metabolite M17]"
  Result: "-"
- Molecule: "COc1ccc2[nH]c(SCc3ncc(C)c(OC)c3C)nc2c1 [Metabolite M15, omeprazole sulfide]"
  Result: "O"
- Molecule: "COc1ccc2nc(S(=O)(=O)Cc3ncc(C)c(OC)c3C)[nH]c2c1 [Metabolite M14, omeprazole sulfone]"
  Result: "O"
- Molecule: "COc1ccc2[nH]c([S+]([O-])Cc3ncc(C)cc3C)nc2c1 (stereo not shown) [Metabolite M11]"
  Result: "O"
- Molecule: "COc1ccc2[nH]c([S+]([O-])Cc3ncc(C)c(OC)c3C)nc2c1 (stereo not shown) [Omeprazole]"
  Result: "O"
- Molecule: "COc1ccc2[nH]c(SCC(NC(C)=O)C(=O)O)nc2c1 (stereo not shown) [Metabolite M1]"
  Result: "-"
- Molecule: "COc1c(C)cnc(C[S+]([O-])c2nc3cc(O[C@@H]4O[C@H](C(=O)O)[C@@H](O)[C@H](O)[C@H]4O)ccc3[nH]2)c1C (stereo partly shown) [Metabolite M2]"
  Result: "O"

----------
Test method notes: Pharmacokinetic study of omeprazole in mice after i.v., i.p. and p.o. administration (plasma and brain, LC-QTOF-MS)
Type: in vivo, Male ICR mice
Test conditions: male, ICR, mouse, brain/plasma, ip, 10 mg/kg, i.p., AUClast, read-out: brain-to-plasma partition coefficient (Kp) = AUCbrain/AUCplasma

- Molecule: "COc1ccc2[nH]c([S+]([O-])Cc3ncc(C)c(OC)c3C)nc2c1 (stereo not shown) [Omeprazole]"
  Kp: 0.068

----------
Test method notes: Pharmacokinetic study of omeprazole in mice after i.v., i.p. and p.o. administration (plasma and brain, LC-QTOF-MS)
Assay type: in vivo, Male ICR mice
Test conditions: male, ICR, mouse, po, 10 mg/kg, plasma

- Compound: "COc1ccc2[nH]c([S+]([O-])Cc3ncc(C)c(OC)c3C)nc2c1 (stereo not shown)"
  Unit: "ng·h/mL"
  AUC(0-t): 236

----------
Test method notes: Pharmacokinetic study of omeprazole in mice after i.v., i.p. and p.o. administration (plasma and brain, LC-QTOF-MS)
Type: in vivo, Male ICR mice
Test conditions: male, ICR, mouse, ip, 10 mg/kg, plasma
Experimental readout: Cmax (ng/mL)

- Molecule: "COc1ccc2[nH]c([S+]([O-])Cc3ncc(C)c(OC)c3C)nc2c1 (stereo not shown) [Omeprazole]"
  Unit: "ng/mL"
  Number: 4890

----------
Test method notes: In vivo metabolite identification (MetID) after concomitant omeprazole/D3-omeprazole administration, mouse plasma and brain
Design: species or system Male ICR mice; key: found / not found / E, i.v. route (brain): found / not found / F, p.o. route (brain): found / not found / A, i.p. route (plasma): found / not found / B, i.v. route (plasma): found / not found / C, p.o. route (plasma): found / not found: O, found; -, not found
Test conditions: 50 mg/kg omeprazole/D3-omeprazole 1:1, i.p., mouse plasma
Experimental readout: A, i.p. route (plasma): found / not found

- Compound: "COc1c(C)cnc(CSc2nc3cc(O)ccc3[nH]2)c1C [Metabolite M17]"
  Result: "-"
- Compound: "COc1c(C)cnc(C[S+]([O-])c2nc3cc(O[C@@H]4O[C@H](C(=O)O)[C@@H](O)[C@H](O)[C@H]4O)ccc3[nH]2)c1C (stereo partly drawn) [Metabolite M2]"
  Result: "O"
- Compound: "COc1ccc2[nH]c(SCC(NC(C)=O)C(=O)O)nc2c1 (stereo not drawn) [Metabolite M1]"
  Result: "O"

The origin of these recorded values is paper PMC7400457.
